Recorded values, source PubChem BioAssay (NCATS).

# protocol.notes: Quantitative High-Throughput drug screen in 47 multiple myeloma cell lines against the NCATS MIPE library collection: XG6_PLB cell viability assay (AID 1919865); note: nearly all actives have a fitted effect of over 40% in size
# details: XG6 myeloma viability, CellTiter-Glo ATP luminescence, 48 h; series mostly up to 45.8 µM
Records with an inconclusive call do not appear. The source made the active and inactive calls. Calls come from the whole dose curve; as a rule, active = well fitted cell-killing curve with a large enough effect; inconclusive = small, poorly fitted or top-dose-only effect, or effect the other way; inactive = no such curve, though single readings can be large or run the other way.
Response enum: Y for active, N for inactive

Call for entry O=C(Oc1ccc([N+](=O)[O-])cc1)N1CCC(C(O)(c2ccc3c(c2)OCO3)c2ccc3c(c2)OCO3)CC1 :
Y

----------
# protocol.notes: qHTS for Inhibitors of the Functional Ribonucleoprotein Complex (vRNP) of Lymphocytic Choriomeningitis Arenaviruses (LCMV): Viability assay - alamar blue signal for LCMV Primary Screen (AID 1347085); note: nearly all actives have a fitted effect of over 80% in size
# details: alamar blue viability counter-screen, LCMV vRNP screen cells; series mostly up to 57.5 µM
Inconclusive results are not listed. Activity calls are given as the source filed them. The call rests on the fitted dose curve; tested in HEK293 reporter line.
Response enum: active, inactive

{"compound": "CC(C[N+](C)(C)C)OC(N)=O (stereo unspecified)", "class": "inactive"}
{"compound": "CCN(CC)CCc1nc(-c2ccccc2)no1", "class": "inactive"}
{"compound": "O=C(C=Cc1cccnc1)NCCCCC1CCN(C(=O)c2ccccc2)CC1", "class": "active"}
{"compound": "COc1ccc2c(c1)CC[C@@H](CN(C)CC(=O)O)[C@H]2c1ccccc1", "class": "active"}
{"compound": "O=C(Nc1cccc(Cl)c1)Nc1ncc(CCNc2ncnc3ccsc23)s1", "class": "inactive"}

Now turn to the next compound.
Call for entry O=C(Nc1cccc(C2=NCCN2)c1)Nc1cccc(C2=NCCN2)c1 :
inactive
